// provenance: a melting point compilation (Tetko et al.; mined from patent text by program, amines drawn as free bases though some values may be those of a salt)

This section presents molecules with their documented melting point values.

MOLECULE: O=C1NC(=O)C2(C=Cc3cscc32)N1 (configuration not stated)
melting point: 241 to 243 °C
--
MOLECULE: CCOC(=O)c1c(S(=O)(=O)c2ccc(C)cc2)nc(-c2ccccc2)c([N+](=O)[O-])c1C(=O)OCC
melting point: 115 to 117 °C
--
MOLECULE: CCOC(=O)c1cnc2c(F)c(F)ccc2c1
melting point: 118 °C

The molecule listed as O=C(NCCCCCOc1cc(CN2CCCCC2)ccn1)c1cn[nH]c1 shows melting point equal to 105 to 106 °C

The molecule listed as Nc1cc(F)c(Cl)c(Br)c1Cl shows melting point equal to 126 to 130 °C

The molecule listed as CC(C)(C)CN(NC(=O)c1ccccc1)C(=O)c1ccccc1 shows melting point equal to 237 to 239 °C

The molecule listed as N#Cc1nn(-c2c(Cl)cc(C(F)(F)F)cc2Cl)cc1C=NO shows melting point equal to 170 °C

The molecule listed as NC(=NO)c1c(F)ccc(OCc2nc3cc(Cl)ccc3s2)c1F shows melting point equal to 169 to 170 °C

The molecule listed as CC(C)(C)C#CC(O)(Cn1cncn1)C(C)(C)C (configuration not stated) shows melting point equal to 114 to 118 °C

The molecule listed as CCOC(=O)C1OC1c1ccc(OC)cc1 (configuration not stated) shows melting point equal to 40 to 43 °C

The molecule listed as CC1NC(=O)NN=C1c1ccc(C#N)cc1 (configuration not stated) shows melting point equal to 268 to 269 °C

The molecule listed as CC(C)(C)OC(=O)N[C@@H](Cc1cscn1)C(=O)O shows melting point equal to 115 °C

The molecule listed as COc1c2c(c(OC)c(OC)c1OC)CC(CCCCOc1ccc(C(=O)N3CCOCC3)cc1)C2 shows melting point equal to 64 to 72 °C

The molecule listed as O=C(O)CCC(NC(=O)c1ccccc1)C(=O)NC(c1ccccc1)c1ccccc1 (configuration not stated) shows melting point equal to 128 °C

The molecule listed as CCCn1nc(Cc2ccc(-c3ccccc3-c3nnn(C(c4ccccc4)(c4ccccc4)c4ccccc4)n3)cc2)c(C(=O)OCC)c1C(C)C shows melting point equal to 158 to 159 °C

The molecule listed as O=S(=O)(c1ccc(Cl)cc1)C(c1cc(F)ccc1F)c1cc(NCCc2ccncc2)ncc1Cl (configuration not stated) shows melting point equal to 148 to 150 °C

The molecule listed as Nc1nc2ccccc2c2c1ncn2CCCC(=O)c1ccccc1 shows melting point equal to 209 to 211 °C

The molecule listed as Nc1c(Cl)cccc1CO shows melting point equal to 56 to 68 °C

The molecule listed as Nc1cc(Br)ccc1-c1ccc(F)cc1F shows melting point equal to 67 to 69 °C

The molecule listed as CN(C)C=Cc1c(N)cc([N+](=O)[O-])cc1[N+](=O)[O-] shows melting point equal to 105 to 107 °C
